TESTED SYSTEM: Sodium/glucose cotransporter 1 (Homo sapiens, UniProt P13866)
Sequence (P13866 whole entry): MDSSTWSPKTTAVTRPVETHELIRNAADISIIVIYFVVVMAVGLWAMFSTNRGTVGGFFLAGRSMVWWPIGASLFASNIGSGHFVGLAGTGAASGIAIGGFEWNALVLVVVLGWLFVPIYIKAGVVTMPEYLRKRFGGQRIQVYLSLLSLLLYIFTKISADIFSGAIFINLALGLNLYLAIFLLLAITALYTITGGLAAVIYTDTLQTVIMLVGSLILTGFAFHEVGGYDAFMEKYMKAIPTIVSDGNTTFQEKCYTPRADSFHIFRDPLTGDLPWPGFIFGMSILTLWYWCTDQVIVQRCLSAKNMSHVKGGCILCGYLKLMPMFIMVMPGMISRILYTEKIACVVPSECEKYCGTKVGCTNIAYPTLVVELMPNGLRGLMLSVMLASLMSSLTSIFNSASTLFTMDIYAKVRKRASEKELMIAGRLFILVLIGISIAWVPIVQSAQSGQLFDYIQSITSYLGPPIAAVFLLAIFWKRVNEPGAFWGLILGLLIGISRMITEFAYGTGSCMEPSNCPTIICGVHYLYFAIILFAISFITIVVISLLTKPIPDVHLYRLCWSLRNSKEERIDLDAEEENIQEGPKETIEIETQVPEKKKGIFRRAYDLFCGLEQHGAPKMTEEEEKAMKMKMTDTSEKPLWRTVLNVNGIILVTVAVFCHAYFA
TEST DESCRIPTION: Inhibition Assay: The stable cell line expressing human SGLT1 was seeded at 5x10^4 cells/well on BioCoat Poly-D-Lysine 96 well plate with Lid (Becton Dickinson and Company) and cultured at 37 C. under 5% CO2 overnight. The medium was replaced with 100 uL/well of a Na (+) buffer (140 mM choline chloride, 2 mM KCl, 1 mM MgCl2, 1 mM CaCl2, 10 mM HEPES, 5 mM Tris, pH7.4) followed by incubation for 20 minutes at 37 C. under 5% CO2. After removing the Na (+) buffer, a test compound solution which was prepared from Na (+) buffer (140 mM NaCl, 2 mM KCl, 1 mM MgCl2, 1 mM CaCl2, 10 mM HEPES, 5 mM Tris, pH7.4) containing BSA was added thereto at 40 uL/well. In addition, Na (+) buffer containing 8 kBq of 14C-AMG and 2 mM AMG was added thereto at 40 uL/well, and was mixed well. Na (+) buffer containing BSA was added to a blank well at 40 uL/well and additionally adding a Na (+) buffer containing 8 kBq of 14C-AMG and 2 mM AMG, and was mixed well.
MEASURE NAME: pIC50
Hey, just a heads up that pIC50 is the negative log base 10 of the concentration in molar.

Please supply the value of reported pIC50 for the item `O=C1C[C@H](C(=O)Nc2cc(-c3cccc(COCC(F)(F)F)c3)n(-c3ccc(F)cc3)n2)CN1`
7.66
